Reported viability, T/C values follow for various compounds
System: 521955-158-R2-J5-PDC complex spheroid growth
experiment_description: Anticancer human tumor 521955-158-R2-J5-PDC patient-derived pancreatic carcinoma cell line growth inhibition [AhR]
measurement_setup: second compound 10 µM; first compound 0.1 µM; active compounds read low

{"columns": ["compound", "readout_units", "viability, T/C"],
 "data": [
  ["Nc1ccn(C2OC(CO)C(O)C2(F)F)c(=O)n1 (stereo unspecified) + Cc1cncc(-c2nc(NCCc3c[nH]c4ccccc34)c3ncn(C(C)C)c3n2)c1", "%", 99.3],
  ["Nc1ccccc1NC(=O)c1ccc(CNC(=O)OCc2cccnc2)cc1 + Cc1ccccc1N=Nc1ccc(NC(=O)c2ccnn2C)c(C)c1", "%", 168],
  ["O=C(C=Cc1cccc(S(=O)(=O)Nc2ccccc2)c1)NO + Cc1ccccc1N=Nc1ccc(NC(=O)c2ccnn2C)c(C)c1", "%", 146],
  ["COc1ccc([C@@H](O)c2cc(-c3ncnc4cc(N5CCOCC5)ccc34)c(F)cc2Cl)nn1 + Cc1ccccc1N=Nc1ccc(NC(=O)c2ccnn2C)c(C)c1", "%", 136],
  ["CC1COCCN1c1cc(-c2ccnn2C)c2ccnc(-c3ccn[nH]3)c2n1 (stereo unspecified) + CC(CO)NC(=O)c1cc(-c2ccc(Cl)cc2)nn(-c2cnn(C)c2)c1=O", "%", 17.8],
  ["CC1COCCN1c1cc(C2(S(C)(=N)=O)CC2)nc(-c2ccnc3[nH]ccc23)n1 (stereo unspecified) + Cc1ccccc1N=Nc1ccc(NC(=O)c2ccnn2C)c(C)c1", "%", 149]
]}

###

System: 521955-158-R2-J5-PDC complex spheroid growth
experiment_description: Anticancer human tumor 521955-158-R2-J5-PDC cell line growth inhibition [AhR];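 note: spheroids mix tumor cells with HUVEC endothelium and human MSC stroma; luminescence taken as viability surrogate after a week of drug exposure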
measurement_setup: second compound 1 µM; first compound 0.00316 µM; active compounds read low
Reported viability, T/C values follow for various molecules
assay_metric: viability, T/C (%)

{"columns": ["molecule", "subject_of_test", "assay_metric", "assay_result"],
 "data": [
  ["CC1COCCN1c1cc(-c2ccnn2C)c2ccnc(-c3ccn[nH]3)c2n1 (configuration not stated) + Cc1ccccc1N=Nc1ccc(NC(=O)c2ccnn2C)c(C)c1", "521955-158-R2-J5-PDC complex spheroid growth", "viability, T/C", 123],
  ["Cn1ncnc1C1c2n[nH]c(=O)c3cc(F)cc(c23)NC1c1ccc(F)cc1 (configuration not stated) + Cc1cncc(-c2nc(NCCc3c[nH]c4ccccc34)c3ncn(C(C)C)c3n2)c1", "521955-158-R2-J5-PDC complex spheroid growth", "viability, T/C", 116],
  ["Nc1ncn(C2CC(O)C(CO)O2)c(=O)n1 (configuration not stated) + Cc1ccccc1N=Nc1ccc(NC(=O)c2ccnn2C)c(C)c1", "521955-158-R2-J5-PDC complex spheroid growth", "viability, T/C", 90.5],
  ["Nc1ncn(C2CC(O)C(CO)O2)c(=O)n1 (configuration not stated) + CC(CO)NC(=O)c1cc(-c2ccc(Cl)cc2)nn(-c2cnn(C)c2)c1=O", "521955-158-R2-J5-PDC complex spheroid growth", "viability, T/C", 111],
  ["Cn1ncnc1C1c2n[nH]c(=O)c3cc(F)cc(c23)NC1c1ccc(F)cc1 (configuration not stated) + Cc1ccccc1N=Nc1ccc(NC(=O)c2ccnn2C)c(C)c1", "521955-158-R2-J5-PDC complex spheroid growth", "viability, T/C", 138],
  ["CC[C@@]1(O)C(=O)OCc2c1cc1n(c2=O)Cc2cc3c(CN(C)C)c(O)ccc3nc2-1 + CC(CO)NC(=O)c1cc(-c2ccc(Cl)cc2)nn(-c2cnn(C)c2)c1=O", "521955-158-R2-J5-PDC complex spheroid growth", "viability, T/C", 106],
  ["Nc1ncn(C2CC(O)C(CO)O2)c(=O)n1 (configuration not stated) + Cc1cncc(-c2nc(NCCc3c[nH]c4ccccc34)c3ncn(C(C)C)c3n2)c1", "521955-158-R2-J5-PDC complex spheroid growth", "viability, T/C", 112],
  ["CC1COCCN1c1cc(-c2ccnn2C)c2ccnc(-c3ccn[nH]3)c2n1 (configuration not stated) + CC(CO)NC(=O)c1cc(-c2ccc(Cl)cc2)nn(-c2cnn(C)c2)c1=O", "521955-158-R2-J5-PDC complex spheroid growth", "viability, T/C", 93],
  ["CC1COCCN1c1cc(-c2ccnn2C)c2ccnc(-c3ccn[nH]3)c2n1 (configuration not stated) + Cc1cncc(-c2nc(NCCc3c[nH]c4ccccc34)c3ncn(C(C)C)c3n2)c1", "521955-158-R2-J5-PDC complex spheroid growth", "viability, T/C", 94.7],
  ["CC[C@@]1(O)C(=O)OCc2c1cc1n(c2=O)Cc2cc3c(CN(C)C)c(O)ccc3nc2-1 + Cc1ccccc1N=Nc1ccc(NC(=O)c2ccnn2C)c(C)c1", "521955-158-R2-J5-PDC complex spheroid growth", "viability, T/C", 114],
  ["CC[C@@]1(O)C(=O)OCc2c1cc1n(c2=O)Cc2cc3c(CN(C)C)c(O)ccc3nc2-1 + Cc1cncc(-c2nc(NCCc3c[nH]c4ccccc34)c3ncn(C(C)C)c3n2)c1", "521955-158-R2-J5-PDC complex spheroid growth", "viability, T/C", 100],
  ["Cn1ncnc1C1c2n[nH]c(=O)c3cc(F)cc(c23)NC1c1ccc(F)cc1 (configuration not stated) + CC(CO)NC(=O)c1cc(-c2ccc(Cl)cc2)nn(-c2cnn(C)c2)c1=O", "521955-158-R2-J5-PDC complex spheroid growth", "viability, T/C", 112]
]}

Every entry's value here was drawn from PubChem BioAssay AID1918998.
